# tested system: PD-L1 His protein / PD-1 Fc protein (Homo sapiens (Human), UniProt Q9NZQ7)
# Sequence (Q9NZQ7 19-238): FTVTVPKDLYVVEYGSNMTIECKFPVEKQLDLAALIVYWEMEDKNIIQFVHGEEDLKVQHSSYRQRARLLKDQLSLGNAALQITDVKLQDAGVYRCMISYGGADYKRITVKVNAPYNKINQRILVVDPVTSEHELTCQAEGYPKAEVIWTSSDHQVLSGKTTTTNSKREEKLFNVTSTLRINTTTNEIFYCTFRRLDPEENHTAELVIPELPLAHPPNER
# test name: HTRF Assay (PD-1/PD-L1 interaction)
# Type: binding
# conditions: PD-L1 His 6 nM, PD-1 Fc 6 nM
outcome measure: log10 of IC50 (log10 of the value in nM)
Response schema: value (number) is log10 of IC50 in units of nM.

query smiles	log10 of IC50
COc1cc(-c2nccc(-c3cccc(-c4ccc(CNC[C@@H]5CCCO5)c(OC)n4)c3Cl)c2Cl)cc2c1CN(C[C@H](C)O)CC2	0.65
COc1nc(-c2cccc(-c3ccnc(-c4ccc5c(CNC6CN(C(C)=O)C6)cn(C)c5c4)c3Cl)c2Cl)ccc1CNC[C@@H]1CCC(=O)N1	0.69
COc1nc(-c2cccc(-c3ccnc(-c4ccc5c(CN6CC7(C6)CN(C(C)=O)C7)nn(C)c5c4)c3Cl)c2Cl)ccc1CNC[C@@H]1CCC(=O)N1	-0.02
COc1cc(-c2nccc(-c3cccc(-c4ccc5c(OC)c(CNC[C@H](C)O)cc(Cl)c5n4)c3Cl)c2Cl)ccc1CNC[C@@H]1CCC(=O)N1	-0.07
COc1nc(-c2cccc(-c3ccnc(-c4cc(OC)c5nc(CN6CC7(C6)CN(C(C)=O)C7)nn5c4)c3Cl)c2Cl)ccc1CNC(C)C	-0.62

Consider now this further compound.
Query :: State log10 of IC50 on PD-L1 His protein / PD-1 Fc protein (Homo sapiens (Human), UniProt Q9NZQ7). Entry: COc1cc(-c2nccc(-c3cccc(-c4ccc(CNC5CCN(C(C)=O)CC5)c(OC)n4)c3Cl)c2Cl)cnc1CNC1CCN(C(C)=O)CC1
Result :: 0.09

###

# tested system: PD-L1 His protein / PD-1 Fc protein (Homo sapiens (Human))
# test name: HTRF Assay (PD-1/PD-L1 interaction)
# Type: binding
# conditions: PD-L1 His 6 nM, PD-1 Fc 6 nM
outcome measure: pIC50
pIC50 here: minus log base 10 of the concentration, concentration in moles per litre.

query smiles	experimental result
COc1nc(-c2cccc(-c3nccc(-c4ccc(CN5CC[C@@H](O)C5)c(OC)n4)c3Cl)c2Cl)ccc1CN1CC[C@@H](O)C1	9.07

Query :: GET pIC50 where system = PD-L1 His protein / PD-1 Fc protein (Homo sapiens (Human)) and item = COc1nc(-c2cccc(-c3ccnc(-c4ccc5c(CNC6CCN(C(C)=O)CC6)nn(C)c5c4)c3Cl)c2Cl)ccc1CNC[C@@H]1CCC(=O)N1
Result :: 8.83

Query :: Recall the reported pIC50 of COc1cc(-c2nccc(-c3cccc(NC(=O)c4ccc(CNCCO)cn4)c3C)c2Cl)ccc1CNC1CCOCC1 on PD-L1 His protein / PD-1 Fc protein (Homo sapiens (Human)) and write it down.
Result :: 9.85

Query :: Return reported pIC50 for target or system PD-L1 His protein / PD-1 Fc protein (Homo sapiens (Human)), item COc1cc(-c2nccc(-c3cccc(-c4ccc5c(CNC6CCOCC6)cn(C)c5n4)c3Cl)c2Cl)ccc1CNCCO .
Result :: 9.92

###

# tested system: human PD-L1 (Homo sapiens (Human))
# test name: T cell activation luciferase reporter cell culture system (T Cell Activation Assay)
# Format: cell-based
# conditions: luciferase reporter assay; PD-L1 aAPC/CHO-K1 cells with PD-1 effector Jurkat T cells
Threshold 90 nM. EC50 below it: Criterion met. EC50 at it or above: Criterion not met.

The following compounds have reported results that may help.
compound	assigned label
COc1cc(-c2nccc(-c3cccc(-c4ccc(CNC5CCN(C(C)=O)CC5)c(OC)n4)c3Cl)c2Cl)ccc1CNC[C@H]1CNC(=O)C1	Criterion met
COc1cc(-c2nccc(-c3cccc4c3CCC[C@@H]4Nc3nc(OC)c(CNC[C@H](C)O)cc3C(F)(F)F)c2Cl)ccc1CNC[C@@H]1CCC(=O)N1	Criterion not met
COc1cc(-c2nccc(-c3cccc(-c4ccc(CNC5CCN(C(C)=O)CC5)c(OC)n4)c3Cl)c2Cl)ccc1CN[C@H]1CCOC1=O	Criterion not met
COc1cc(-c2nccc(-c3cccc(-c4ccc(CNC[C@@H]5CCC(=O)N5)c(OC)n4)c3Cl)c2Cl)ccc1CNC1(C(=O)O)CC1	Criterion not met
COc1nc(-c2ccnc(-c3cccc(NC(=O)c4ccc(CNCCO)cn4)c3C)c2Cl)ccc1CNC[C@@H]1CCC(=O)N1	Criterion met

Query :: Strictly below 90 nM: is that where EC50 of COc1nc(-c2cccc(-c3ccnc(-c4cc(Cl)c5c(c4)CCN(C[C@@H]4CCC(=O)N4)C5)c3Cl)c2Cl)ccc1CNC[C@@H]1CCC(=O)N1 sits?
Result :: Criterion not met

Query :: Hello, I'm reviewing records and need to know if EC50 of COc1cc(-c2nccc(-c3cccc(-c4ccc(CN(C)C[C@H]5CNC(=O)C5)c(OC)n4)c3Cl)c2Cl)ccc1CN(C)C[C@H]1CNC(=O)C1 is below 90 nM. Could you check?
Result :: Criterion not met

Query :: I'd appreciate it if you could check whether COc1nc(-c2cccc(-c3ccnc(-c4cc5c(=O)n(C)c(CNC6CC(C)(O)C6)nn5c4)c3Cl)c2Cl)ccc1CNC[C@@H]1CCC(=O)N1 (stereo partly shown) has EC50 smaller than 90 nM.
Result :: Criterion not met

Query :: Answer whether the compound COc1cc(-c2nccc(-c3cccc(NC(=O)c4ccc(CNCCO)cn4)c3Cl)c2Cl)ccc1CNCCO has EC50 strictly less than 90 nM
Result :: Criterion met

Query :: Take the compound COc1cc(-c2nccc(-c3cccc(-c4ccc(CNC[C@@H]5CCC(=O)N5)c(OC)n4)c3Cl)c2Cl)ccc1CN1CCC[C@H]1C(=O)OC(C)C and say whether its EC50 is less than 90 nM.
Result :: Criterion not met

Query :: Lab log: compare recorded EC50 with 90 nM; is it strictly lower for COc1nc(-c2cccc(-c3ccnc(-c4cc(OC)c5nc(CNC(C)C)nn5c4)c3Cl)c2Cl)ccc1CNC(C)C ?
Result :: Criterion not met

Query :: Here's an entry: COc1cc(-c2nccc(-c3cccc(-c4ccc(CNC5CCOCC5)c(OC)n4)c3C(F)(F)F)c2Cl)ccc1CNC1CCOCC1 . Is its EC50 below 90 nM?
Result :: Criterion not met

Query :: Quick check: does COc1nc(-c2cccc(-c3ccnc(-c4ccc(CNC5CCN(C(C)=O)CC5)c(OC(F)F)c4)c3Cl)c2Cl)ccc1CN1CC2(C1)CN(C(C)=O)C2 have EC50 under 90 nM?
Result :: Criterion met

Query :: hey, is EC50 for COc1nc(-c2cccc(-c3ccnc(-c4ccc5c(CN6CC[C@H](C(=O)O)C6)nn(C)c5c4)c3Cl)c2Cl)ccc1CNC[C@@H]1CCC(=O)N1 lower than 90 nM or not?
Result :: Criterion met

Query :: # strict comparison: is reported EC50 < 90 nM? input = COc1cc(-c2nccc(-c3cccc(-c4ccc(CN5CC6(CNC(=O)C6)C5)c(OC)n4)c3F)c2Cl)ccc1CN1CC2(CNC(=O)C2)C1
Result :: Criterion met

###

# tested system: human PD-L1 (Homo sapiens (Human))
# test name: T cell activation luciferase reporter cell culture system (T Cell Activation Assay)
# Assay type: cell-based
# conditions: luciferase reporter assay; PD-L1 aAPC/CHO-K1 cells with PD-1 effector Jurkat T cells
outcome measure: EC50

Example results:
molecule	outcome measure	experimental result
COCC(=O)N1CCC(NCc2ccc(-c3nccc(-c4cccc(-c5ccc(CNC6CCN(C(=O)COC)CC6)c(OC)n5)c4C(F)(F)F)c3Cl)cc2OC)CC1 [Example 602]	EC50	≥ 10 µM
COc1nc(-c2cccc(-c3ccnc(-c4ccc5c(CNC6CCN(C(C)=O)CC6)nn(C)c5c4)c3Cl)c2Cl)ccc1CNC1CCN(C(C)=O)CC1 [Example 263]	EC50	≥ 10 µM

Here is the next item to consider.
Query :: Answer with the recorded EC50 of COc1cc(-c2nccc(-c3cccc(-c4ccc(CN5CCC(NC(C)=O)CC5)c(OC)n4)c3Cl)c2C)ccc1CN1CCC(NC(C)=O)CC1 [Example 466] only.
Result :: ≥ 10 µM

###

# maps each entry to its pEC50
# tested system: human PD-L1 (Homo sapiens (Human), UniProt Q9NZQ7)
# Sequence (Q9NZQ7 19-290): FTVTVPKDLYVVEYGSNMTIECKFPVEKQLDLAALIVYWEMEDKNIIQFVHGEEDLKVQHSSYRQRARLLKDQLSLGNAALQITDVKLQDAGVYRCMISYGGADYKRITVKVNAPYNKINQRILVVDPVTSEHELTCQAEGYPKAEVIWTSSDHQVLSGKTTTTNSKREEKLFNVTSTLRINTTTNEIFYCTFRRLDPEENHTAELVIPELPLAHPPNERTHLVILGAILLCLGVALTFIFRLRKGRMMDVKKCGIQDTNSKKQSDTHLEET
# test name: T cell activation luciferase reporter cell culture system (T Cell Activation Assay)
# Type: cell-based
# conditions: luciferase reporter assay; PD-L1 aAPC/CHO-K1 cells with PD-1 effector Jurkat T cells
Reminder that pEC50 means the negative base-10 logarithm of the concentration expressed in mol/L.

query smiles	pEC50
COc1nc(-c2cccc(-c3ccnc(-c4cc5c(OC)nc(CN6CC(C)(O)C6)nn5c4)c3Cl)c2Cl)ccc1CNC[C@@H]1CCC(=O)N1	6.92
COc1cc(-c2nccc(-c3cccc(-c4ccc(C5=NCCN5)c(OC)n4)c3Cl)c2Cl)ccc1CNC[C@@H](O)CC(=O)O	7.44
COc1cc(-c2nccc(-c3cccc(-c4ccc5c(CN(C)C6CCN(C(C)=O)CC6)cn(C)c5n4)c3Cl)c2Cl)ccc1CN1CC2(C1)CN(C(C)=O)C2	6.96

Next compound, pEC50 to be filled in.
Query :: Fetch value of pEC50 on human PD-L1 (Homo sapiens (Human), UniProt Q9NZQ7) for COc1cc(-c2nccc(-c3cccc(-c4ccc(CNC[C@@H]5CCC(=O)N5)c(OC)n4)c3Cl)c2Cl)cc(C)c1CN(C)C[C@@H]1CCC(=O)N1 .
Result :: 7.51

Origin of the recorded values: patent US20240246964A1
